Test system: S. aureus DSM 20231;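 also: first quartile when negative (synergy) and third quartile when positive (antagonism)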
Experiment: Bliss interaction score (quartile over a dose matrix) (fitness difference); higher = more antagonism (negative = synergy)
Answer each item with its documented Bliss interaction score.
# respond with the number and nothing more

Request: What does the data say about its Bliss interaction score? Entry: C[C@H]1c2cccc(O)c2C(=O)C2=C(O)[C@]3(O)C(=O)C(C(N)=O)=C(O)[C@@H](N(C)C)[C@@H]3[C@@H](O)[C@@H]21 [Doxycycline] + CO[C@@]12[C@H](COC(N)=O)C3=C(C(=O)C(C)=C(N)C3=O)N1C[C@@H]1N[C@@H]12 [MitomycinC]
Response: -0.0478

Request: What does the data say about its Bliss interaction score? Entry: COc1cccc2c1C(=O)c1c(O)c3c(c(O)c1C2=O)C[C@@](O)(C(=O)CO)C[C@@H]3O[C@H]1C[C@H](N)[C@H](O)[C@H](C)O1 [Doxorubicin] + CO[C@@H]1[C@@H](OC(N)=O)[C@@H](O)[C@H](Oc2ccc3c(O)c(NC(=O)c4ccc(O)c(CC=C(C)C)c4)c(=O)oc3c2C)OC1(C)C [Novobiocin]
Response: -0.0601
